# target: human IL-17AA (Homo sapiens)
# test_method_notes: IL-8 release assay in human epithelial keratinocytes adult (HEKa)
# measurement_setup: HEKa cells; 3 ng/mL HEK-human IL-17AA + 10 ng/mL human TNFalpha; 68-72 hours; IL-8 by HTRF; read-out: Rel EC50 IL-8 release assay
// returns not met unless EC50 is strictly below 100 nM, in which case met

Cc1n[nH]c(C)c1-c1ccc(NC(=O)C(c2nnc(-c3ccnn3C)[nH]2)C(C2CC2)C2CC2)cc1 (stereo not shown) ... not met
Cc1ccc(-c2nnc(C(C(=O)Nc3ccc(-c4c(C)n[nH]c4C)cc3)C(C3CC3)C3CC3)[nH]2)cn1 (stereo not shown) ... not met
COc1ccncc1-c1nnc(C(C(=O)Nc2ccc(-c3c(C)n[nH]c3C)cc2)C(C2CC2)C2CC2)[nH]1 (stereo not shown) ... not met
Cc1n[nH]c(C)c1-c1ccc(NC(=O)C(c2nnc(-c3ccnn3C(C)C)[nH]2)C(C2CC2)C2CC2)cc1 (single isomer, unassigned) [Example 71] ... not met
COc1cncc(-c2nnc(C(C(=O)Nc3ccc(-c4c(C)n[nH]c4C)cc3)C(C3CC3)C3CC3)[nH]2)c1 (stereo not shown) ... not met
Cc1n[nH]c(C)c1-c1ccc(NC(=O)C(c2nnc(-c3ccnn3C(C)C)[nH]2)C(C2CC2)C2CC2)cc1 (stereo not shown) [Example 43] ... met
Cc1cccc(-c2nnc(C(C(=O)Nc3ccc(-c4c(C)n[nH]c4C)cc3)C(C3CC3)C3CC3)[nH]2)n1 (stereo not shown) ... met

----------
# target: UniProtKB Q16552
# Sequence (Q16552 24-155) 1: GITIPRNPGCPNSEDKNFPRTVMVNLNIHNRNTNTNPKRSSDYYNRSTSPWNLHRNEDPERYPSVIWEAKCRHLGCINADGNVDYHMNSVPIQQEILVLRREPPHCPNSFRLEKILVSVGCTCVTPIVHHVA
# Sequence (Q16552 24-155) 2: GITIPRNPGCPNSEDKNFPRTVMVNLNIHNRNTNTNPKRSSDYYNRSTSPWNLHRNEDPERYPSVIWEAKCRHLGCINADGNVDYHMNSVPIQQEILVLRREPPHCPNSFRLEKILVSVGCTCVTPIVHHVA
# test_method_notes: IL-8 release assay in human epithelial keratinocytes adult (HEKa)
# measurement_setup: HEKa cells; 3 ng/mL HEK-human IL-17AA + 10 ng/mL human TNFalpha; 68-72 hours; IL-8 by HTRF; read-out: Rel EC50 IL-8 release assay
# Protocol: Example 8: IL-8 Release Assay in Human Epithelial Keratinocytes Adult (HEKa) Keratinocytes were seeded at 3500 cells/well in 384-well ViewPlates (Perkin Elmer) in Epilife medium (Thermo Fisher) containing human keratinocyte growth supplement (HKGS) without hydrocortisone and incubated in a humid incubator at 37° C., 5% CO2, overnight. […] IL-8 released from the cells was measured by the use of a commercial homogenous time-resolved fluorescence (HTRF) assay (CisBio). […]
pEC50: −log10 of the molar value.
experimental_endpoint: pEC50

COc1ncccc1-c1nnc(C(C(=O)Nc2ccc(-c3c(C)n[nH]c3C)cc2)C(C2CC2)C2CC2)[nH]1 (centres unmarked) [Example 49] ... 6.34
Cc1n[nH]c(C)c1-c1ccc(NC(=O)C(c2nnc(-c3c(F)cnn3C)[nH]2)C(C2CC2)C2CC2)cc1 (centres unmarked) [Example 14] ... 6.52
Cc1ccncc1-c1nnc(C(C(=O)Nc2ccc(-c3c(C)n[nH]c3C)cc2)C(C2CC2)C2CC2)[nH]1 (centres unmarked) [Example 53] ... 7.14
Cc1n[nH]c(C)c1-c1ccc(NC(=O)C(c2nnc(Cc3cc[nH]n3)[nH]2)C(C2CC2)C2CC2)cc1 (centres unmarked) [Example 16] ... 5.82
Cc1n[nH]c(C)c1-c1ccc(NC(=O)C(c2nc(-c3ccccc3)c(Cl)[nH]2)C(C2CC2)C2CC2)cc1 (centres unmarked) [Example 3] ... 5.51
Cc1nocc1-c1nnc(C(C(=O)Nc2ccc(-c3c(C)n[nH]c3C)cc2)C(C2CC2)C2CC2)[nH]1 (centres unmarked) [Example 42] ... 6.33
Cc1n[nH]c(C)c1-c1ccc(NC(=O)C(c2nnc(-c3c(C)n[nH]c3C)[nH]2)C(C2CC2)C2CC2)cc1 (centres unmarked) [Example 29] ... 5.85
CCn1nccc1-c1nnc(C(C(=O)Nc2ccc(-c3c(C)n[nH]c3C)cc2)C(C2CC2)C2CC2)[nH]1 (centres unmarked) [Example 23] ... 7.23
Cc1n[nH]c(C)c1-c1ccc(NC(=O)C(c2nnc(C3CCOCC3)[nH]2)C(C2CC2)C2CC2)cc1 (centres unmarked) [Example 61] ... 5.57
Cc1n[nH]c(C)c1-c1ccc(NC(=O)C(c2nnc(-c3ccnn3CC(F)(F)F)[nH]2)C(C2CC2)C2CC2)cc1 (centres unmarked) [Example 26] ... 7.62
Cc1n[nH]c(C)c1-c1ccc(NC(=O)C(c2nnc(-c3cnnn3C)[nH]2)C(C2CC2)C2CC2)cc1 (centres unmarked) [Example 40] ... 6.07
Cc1n[nH]c(C)c1-c1ccc(NC(=O)C(c2nnc(-c3ccn[nH]3)[nH]2)C(C2CC2)C2CC2)cc1 (centres unmarked) [Example 24] ... 6.16
Cc1n[nH]c(C)c1-c1ccc(NC(=O)C(c2nnc(-c3ccnn3C3CC3)[nH]2)C(C2CC2)C2CC2)cc1 (centres unmarked) [Example 44] ... 7.11
Cc1nonc1-c1nnc(C(C(=O)Nc2ccc(-c3c(C)n[nH]c3C)cc2)C(C2CC2)C2CC2)[nH]1 (centres unmarked) [Example 13] ... 6.77

----------
Property: EC50; scope: individual molecules
# target: human IL-17AA (Homo sapiens)
# test_method_notes: IL-8 release assay in human epithelial keratinocytes adult (HEKa)
# measurement_setup: HEKa cells; 3 ng/mL HEK-human IL-17AA + 10 ng/mL human TNFalpha; 68-72 hours; IL-8 by HTRF; read-out: Rel EC50 IL-8 release assay
experimental_endpoint: EC50 (nM)

Cc1n[nH]c(C)c1-c1ccc(NC(=O)C(c2nnc(-c3ccccc3F)[nH]2)C(C2CC2)C2CC2)cc1 (stereo not shown) [Example 5] ... 390
Cc1n[nH]c(C)c1-c1ccc(NC(=O)C(c2nnc(-c3cccnc3)[nH]2)C(C2CC2)C2CC2)cc1 (stereo not shown) [Example 31] ... 430
Cc1n[nH]c(C)c1-c1ccc(NC(=O)C(c2nnc(-c3cnn(C)c3C)[nH]2)C(C2CC2)C2CC2)cc1 (stereo not shown) [Example 38] ... 360
Cc1n[nH]cc1-c1nnc(C(C(=O)Nc2ccc(-c3c(C)n[nH]c3C)cc2)C(C2CC2)C2CC2)[nH]1 (stereo not shown) [Example 39] ... 500
Cc1n[nH]c(C)c1-c1ccc(NC(=O)C(c2nnc(-c3ccccc3Cl)[nH]2)C(C2CC2)C2CC2)cc1 (stereo not shown) [Example 18] ... 310
Cc1n[nH]c(C)c1-c1ccc(NC(=O)C(c2nc(F)c(-c3ccccc3)[nH]2)C(C2CC2)C2CC2)cc1 (stereo not shown) [Example 72] ... 260
Cc1n[nH]c(C)c1-c1ccc(NC(=O)C(c2nc(-c3ccccc3)c(C)[nH]2)C(C2CC2)C2CC2)cc1 (stereo not shown) [Example 7] ... 800

Cited source: patent US20230227435A1
